Origin of measurements: patent US20210255193A1

R value (DMSO/fragment) for probe 1 labeling reference
Molecular target: LMNA Prelamin-A/C (Homo sapiens)
Construct: isoTOP-ABPP experiments performed in cell lysates (in vitro); endogenous in cells; host or cells: MDA-MB-231 soluble lysate
Sequence (P02545 whole entry): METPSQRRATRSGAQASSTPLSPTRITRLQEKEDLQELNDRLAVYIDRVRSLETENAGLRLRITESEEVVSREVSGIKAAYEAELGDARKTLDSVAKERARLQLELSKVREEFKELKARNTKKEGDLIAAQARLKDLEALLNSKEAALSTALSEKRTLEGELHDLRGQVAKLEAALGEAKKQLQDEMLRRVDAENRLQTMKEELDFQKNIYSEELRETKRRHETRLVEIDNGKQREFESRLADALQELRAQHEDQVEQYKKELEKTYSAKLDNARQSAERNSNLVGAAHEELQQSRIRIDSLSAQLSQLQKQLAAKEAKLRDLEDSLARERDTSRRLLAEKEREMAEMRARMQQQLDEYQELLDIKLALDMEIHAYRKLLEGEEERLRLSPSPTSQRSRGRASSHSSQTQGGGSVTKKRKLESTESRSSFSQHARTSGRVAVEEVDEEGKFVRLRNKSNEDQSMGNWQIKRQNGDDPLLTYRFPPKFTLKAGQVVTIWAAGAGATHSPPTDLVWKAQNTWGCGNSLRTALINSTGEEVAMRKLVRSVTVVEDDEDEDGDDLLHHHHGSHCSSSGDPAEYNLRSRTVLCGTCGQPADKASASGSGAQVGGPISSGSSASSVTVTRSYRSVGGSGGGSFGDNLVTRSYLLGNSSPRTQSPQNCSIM
Assay: competitive isoTOP-ABPP
Format: binding
Settings: P02545_K135; 50 uM, 231 sol, in vitro
value.type: R value (DMSO/fragment) for probe 1 labeling

1) COc1cc(CCC(=O)Oc2c(F)c(F)c(F)c(F)c2F)cc(OC)c1OC ... 0.9
2) Cn1cc(CC(=O)Oc2c(F)c(F)c(F)c(F)c2F)c2ccccc21 ... 1.0
3) O=C(Oc1c(F)c(F)c(F)c(F)c1F)c1cc(C(F)(F)F)cc(C(F)(F)F)c1 ... 1.0
4) O=C(Oc1c(F)c(F)c(F)c(F)c1F)C(c1ccccc1)c1ccccc1 [fragment 20, Pentafluorophenyl 2,2-diphenylacetate] ... 1.0
5) O=C(CCc1cn(-c2ccccc2)nc1-c1ccccc1)Oc1c(F)c(F)c(F)c(F)c1F ... 1.1

---

Molecular target: NUDT2 Bis(5-nucleosyl)-tetraphosphatase (Homo sapiens, UniProt P50583)
Construct: isoTOP-ABPP experiments performed in cell lysates (in vitro); endogenous in cells
Sequence (P50583 whole entry): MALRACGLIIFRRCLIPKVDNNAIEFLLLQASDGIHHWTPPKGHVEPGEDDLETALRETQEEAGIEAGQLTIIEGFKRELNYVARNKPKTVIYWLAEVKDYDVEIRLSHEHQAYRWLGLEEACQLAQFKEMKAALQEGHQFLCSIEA
Test: competitive isoTOP-ABPP
Format: binding
Settings: 50 uM, in vitro, sol, 231
value.type: isoTOP-ABPP ratio (R) at liganded lysine P50583_K89

1. O=C(CC12CC3CC(CC(C3)C1)C2)Oc1ccc([N+](=O)[O-])cc1[N+](=O)[O-] ... 0.9
2. O=C(Oc1ccc([N+](=O)[O-])cc1[N+](=O)[O-])c1ccc(-c2ccccc2)cc1 ... 1.4
3. CC(=O)Oc1ccc([N+](=O)[O-])cc1[N+](=O)[O-] [fragment 43, 2,4-Dinitrophenyl acetate] ... 1.1
4. CC(C)(C)OC(=O)NCCCC(=O)Oc1ccc([N+](=O)[O-])cc1[N+](=O)[O-] ... 1.0
5. O=C(Oc1ccc([N+](=O)[O-])cc1[N+](=O)[O-])c1ccccc1Nc1cccc(C(F)(F)F)c1 ... 0.9
6. O=C(Oc1ccc([N+](=O)[O-])cc1[N+](=O)[O-])c1ccc(Oc2ccccc2)cc1 [fragment 39, 2,4-Dinitrophenyl 4-phenoxybenzoate] ... 2.4
7. O=C(Oc1ccc([N+](=O)[O-])cc1[N+](=O)[O-])c1ccc2ccccc2n1 ... 1.6

---

Molecular target: KIAA1033 WASH complex subunit 7 (Homo sapiens)
Construct: isoTOP-ABPP experiments performed in cell lysates (in vitro); endogenous in cells; host or cells: soluble proteome of human cancer cell lines (MDA-MB-231; Ramos and Jurkat also prepared)
Sequence (Q2M389 whole entry, one chain of several): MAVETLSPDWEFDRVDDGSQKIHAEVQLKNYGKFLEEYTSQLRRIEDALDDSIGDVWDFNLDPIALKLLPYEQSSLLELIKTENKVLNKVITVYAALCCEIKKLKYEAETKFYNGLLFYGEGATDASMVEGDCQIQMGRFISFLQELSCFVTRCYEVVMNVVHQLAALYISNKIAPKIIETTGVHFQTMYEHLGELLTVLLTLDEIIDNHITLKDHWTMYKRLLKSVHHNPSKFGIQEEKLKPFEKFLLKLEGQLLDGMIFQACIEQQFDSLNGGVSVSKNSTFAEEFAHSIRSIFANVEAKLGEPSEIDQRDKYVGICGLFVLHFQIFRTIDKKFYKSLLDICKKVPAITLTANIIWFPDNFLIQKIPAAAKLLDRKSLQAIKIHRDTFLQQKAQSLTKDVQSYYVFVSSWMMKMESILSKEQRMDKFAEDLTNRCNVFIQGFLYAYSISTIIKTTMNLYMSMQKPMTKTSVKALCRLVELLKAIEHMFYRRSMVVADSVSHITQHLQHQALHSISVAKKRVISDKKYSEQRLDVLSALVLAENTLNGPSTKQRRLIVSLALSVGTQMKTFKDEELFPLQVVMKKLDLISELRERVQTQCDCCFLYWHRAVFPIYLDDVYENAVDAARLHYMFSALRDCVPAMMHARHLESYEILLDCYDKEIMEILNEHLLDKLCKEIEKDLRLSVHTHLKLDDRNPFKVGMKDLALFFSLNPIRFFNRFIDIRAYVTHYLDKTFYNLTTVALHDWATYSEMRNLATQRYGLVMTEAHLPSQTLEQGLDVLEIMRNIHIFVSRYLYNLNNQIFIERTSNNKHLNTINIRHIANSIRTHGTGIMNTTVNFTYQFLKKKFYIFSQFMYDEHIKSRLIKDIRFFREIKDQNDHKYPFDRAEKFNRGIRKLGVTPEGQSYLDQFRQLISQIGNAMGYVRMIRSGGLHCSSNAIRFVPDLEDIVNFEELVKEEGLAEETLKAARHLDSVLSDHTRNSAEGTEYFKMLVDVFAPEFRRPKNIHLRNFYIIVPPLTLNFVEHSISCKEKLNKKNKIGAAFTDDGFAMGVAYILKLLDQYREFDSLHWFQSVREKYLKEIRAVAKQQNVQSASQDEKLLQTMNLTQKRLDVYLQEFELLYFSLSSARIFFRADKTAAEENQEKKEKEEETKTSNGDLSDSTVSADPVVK
Test: competitive isoTOP-ABPP
Format: binding
Conditions: Q2M389_K302; 50 uM, 231 sol, in vitro
value.type: R value (DMSO/fragment) for probe 1 labeling

1. O=C(Oc1c(F)c(F)c(F)c(F)c1F)C(c1ccccc1)c1ccccc1 [fragment 20, Pentafluorophenyl 2,2-diphenylacetate] ... 0.9
2. COc1cc(CCC(=O)Oc2c(F)c(F)c(F)c(F)c2F)cc(OC)c1OC ... 1.5
3. O=C(CCc1cn(-c2ccccc2)nc1-c1ccccc1)Oc1c(F)c(F)c(F)c(F)c1F ... 0.8
4. Cn1cc(CC(=O)Oc2c(F)c(F)c(F)c(F)c2F)c2ccccc21 ... 3.6
